- Method Notes: Clearance in human liver microsomes assessed as extraction ratio
- Type: ADME
- Protocol Conditions: read-out: ERH
Measured Parameter: hepatic extraction ratio

Some entries whose results are on file:
CCOC(=O)[C@@]1(Cc2ccccc2)CCc2cnc3c(-c4ccc(Cl)cc4)cnn3c21	0.79
COC(=O)[C@@]1(Cc2cccc(F)c2)CCc2cnc3c(-c4ccc(C(F)(F)F)cc4)cnn3c21	0.96
COC(=O)[C@@]1(Cc2cccc(F)c2)NCc2cnc3c(-c4ccc(C(F)(F)F)cc4)cnn3c21	0.95
COC(=O)C1(Cc2ccccc2)OCc2cnc3c(-c4ccc(C(F)(F)F)cc4)cnn3c21 (racemic)	0.96
Fc1cccc(CC2(C3CC3)NCc3cnc4c(-c5ccc(C(F)(F)F)cc5)cnn4c32)c1 (racemic)	0.6
COC(=O)[C@@]1(Cc2cccc(F)c2)N=Cc2cnc3c(-c4ccc(C(F)(F)F)cc4)cnn3c21	0.97

1: CCOC(=O)[C@@]1(Cc2ccccc2)CNc2cnc3c(-c4ccc(C(F)(F)F)cc4)cnn3c21
2: COC(=O)[C@@]1(Cc2cccc(F)c2)NCc2cnc3c(-c4ccc(C(F)(F)F)cc4)c(C(C)(C)O)nn3c21
3: CCOC(=O)[C@](C)(Cc1ccccc1)c1c(C)cnc2c(-c3ccc(C(F)(F)F)cc3)cnn12
### Prompt Ordering criterion: hepatic extraction ratio; begin with the maximum. # respond with the labels, arranged in the requested order
### Response 1, 2, 3
(1: 0.75, 2: 0.51, 3: 0.3)
